assay: yeast display, Sf9 membrane polyspecificity reagent, FACS + sequencing; frameworks hold sequencing errors
test readout: polyreactivity (PSR sort gate)

Examples with answers:
QVQLVESVGRLVQAGGSLRLSCDASGSIFYYAMGWYRQAPGKERELVAAITWRGGRTYYADSVKGRFTITRDNEKNTVYLQLNSLKPEDTAVYNCNAVAPCKYNHWGQGTQVTVSS	high polyreactivity
QVQLVESGGGLVQAGGSLRLSCAASGRTFRYYAMGWYRQAPGKERELVAAINRGGSTYYADSVKGRFTISRDNAKNTVYLQMNSLKPEDTAVYYCNVDKYRIVGFHSPYDYWGQGTQVTVSS	high polyreactivity
QVQLVESGGGLVQAGGSLRLSCAASGSTFHLNAMGWYRQAPGKERELVAAISWDGSSTSYADSVKGRFTISRDNAKNTVYLQMNSLKPEDTAVYYCAKRSSGVSVPVAYGGIKRYNSWGQGTQVTVSS	low polyreactivity
QVQLVESGGGLVQAGGSLRLSCAASGSIFGRYAMGWYRQAPGKERELVAVITSGGSTNYADSVKGRFTISRDKAKNTVYLQMNSLKPEDTAVYYCAVRPYELHRLADQPGGDDYWGQGTQVTVSS	low polyreactivity
QVQLVESGGGLVHAGGSLRLSCAASGRIFQHYAMGWYRKAPGKERELVAAISWRGGSTYYADSVKGRFTISRDNAKNTVYLQMNSLIPEDTAVYYCAAGYPGRNPGFDYWGQGNQVTVSS	high polyreactivity
QVQLVESGGGLVQAGGSLRLSCAASGRIFASNAMGWYRQAPGKERELVAAIDQGGGSTYYADSVKGRFTISRDNAKNTVYLQMNSLKPEDTAVYDCAADYISAYPRLYNYWGQGTQVTVSS	low polyreactivity
QVQLVESGGGLVQAGGSLRLSCAASGLTFGPYAMGWYRQAPGKERELVAAITSGGNTNYADSVKGRFTISRDNAKNTVYLQMNSLKPEDTAVYYCATSYYLAYRSITPYDYWGQGTQVTVSS	low polyreactivity
QVQLVESGGGLVQAGGSLSLSCAASGSTFGSNAKGWYRQAPGKARELVAAISSDGSTNYADSVKGRFTISRDNAKNTVYLQMNSLKPEDTAVYYCAADDRHRYNIYDYWGQGTQVTLSS	low polyreactivity
QVQLVESGGGLVQAGGSLRLSCAASGFIFAEYAMGWYRQAPGKERELVAAITSGGSTSYADSVKGRFTISRDNAKNTVYLQMNSLKPEDTAVYYCAATWYYHYNDWKHWYEYGYWGQGTQVTVSS	low polyreactivity
QVHLVESGGGLVQAGGSLRLSCAASASTFLYYAMGWNRQPPGKERELVAVISWSGVSTYYADSVKGRFTSSRDNAKYTVYLQMNSLKPEDTAVYYCNTGNHYIRTYGYWGQGTQVTVSS	low polyreactivity

With those in mind, consider the next sequence.
Given item QVQLVESGGGLVQAGGSLRLSCAASGSTWVYAMGWYRQAPGKERELFAAITVSGGSTYYADSVKGRFTISRDNAKNTVYLQMNSQKPEDPAVYYCAAYDSYRKFKYLGQGTQVTVSS , the value recorded as its polyreactivity (PSR sort gate) is high polyreactivity
